Taken from PubChem BioAssay.

experiment: drug combination growth inhibition, ovarian cancer – cell-based, oncology-focused library, rucaparib conditional, profiling panel (AID 1508598); conditions: patient-derived ovarian cancer cells, CellTiter-Glo viability, 144 h; at 0.313 µM; OCI-C5x cells; without rucaparib
Calls of active or inactive are those of the source.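 The calls were made as follows: active = normalized viability below 100% at a tested concentration; inactive = the rest.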
Hello, when you answer, please use one of the following outcomes: true (1) (active), false (0) (inactive)

Take a look at these entries with their results.
CN(C)CC[C@H](CSc1ccccc1)Nc1ccc(S(=O)(=O)NC(=O)c2ccc(N3CCN(Cc4ccccc4-c4ccc(Cl)cc4)CC3)cc2)cc1[N+](=O)[O-] : true (1)
Cc1csc(-c2nnc(Nc3ccc(Oc4ncccc4-c4ccnc(N)n4)cc3)c3ccccc23)c1 : false (0)
CCN(CC)CCCCNc1ncc2cc(-c3cc(OC)cc(OC)c3)c(NC(=O)NC(C)(C)C)nc2n1 : false (0)
COc1cc(OC2CCN(C)CC2)ccc1Nc1ncc2c(n1)n(C1CCCC1)c(=O)n2C : false (0)
Nc1nccc(Oc2ccc(NC(=O)c3c[nH]cc(-c4ccc(F)cc4)c3=O)cc2F)c1Cl : false (0)

Recorded test outcome, item `CN(NC(=O)CC(=O)NN(C)C(=S)c1ccccc1)C(=S)c1ccccc1`
false (0)

Then what about the compound `Cc1ccc(-c2csc(NC(=O)c3ccccc3)n2)c(C)c1` ?
false (0)

---

test: drug combination growth inhibition, ovarian cancer – cell-based, oncology-focused library, rucaparib conditional, profiling panel (AID 1508598); details: patient-derived ovarian cancer cells, CellTiter-Glo viability, 144 h; at 0.0195 µM; OCI-P5x cells; without rucaparib; stronger effect = lower value
Calls of active or inactive are those of the source.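 Rule for the calls: active = normalized viability below 100% at a tested concentration; inactive = the rest.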
Parameter viability: see the listing below.

Please review the following examples before continuing.
CC(C)c1cc(-c2n[nH]c(=O)n2-c2ccc3c(ccn3C)c2)c(O)cc1O : 104% (inactive)
O=C(CCCCCCC(=O)Nc1ccc([C@H]2O[C@@H](CSc3nc(-c4ccccc4)c(-c4ccccc4)o3)C[C@@H](c3ccc(CO)cc3)O2)cc1)NO : 79.1% (active)
CCC(CC)CC1(C(=O)Nc2ccccc2SC(=O)C(C)C)CCCCC1 : 108% (inactive)
COc1cc2nccc(Oc3ccc(NC(=O)C4(C(=O)Nc5ccc(F)cc5)CC4)cc3)c2cc1OC : 101% (inactive)

Okay, now this molecule:
Item under review: `Cc1ccc(F)c(NC(=O)Nc2ccc(-c3cccc4[nH]nc(N)c34)cc2)c1` . Reported viability?
97.3% (active)

---

assay: drug combination growth inhibition, ovarian cancer – cell-based, oncology-focused library, rucaparib conditional, profiling panel (AID 1508598); conditions: patient-derived ovarian cancer cells, CellTiter-Glo viability, 144 h; at 0.00488 µM; OCI-P5x cells; without rucaparib; stronger effect = lower value
Parameter viability: see the listing below.
Report as a plain number; the unit % is understood.

Please review the following examples before continuing.
Cc1cc(Nc2nc(N[C@@H](C)c3ncc(F)cn3)ncc2Cl)n[nH]1 : 99.3
Nc1ccccc1NC(=O)c1ccc(CNc2nccc(-c3cccnc3)n2)cc1 : 108
O=C(Nc1cccnc1)N1CCC(Cc2cccc(Oc3ccc(C(F)(F)F)cn3)c2)CC1 : 102
Cc1ccc(C(=O)Nc2ccc(CN3CCN(C)CC3)c(C(F)(F)F)c2)cc1C#Cc1cnc2cccnn12 : 107
CN1CCN(c2nc(C3=C(c4c[nH]c5ccccc45)C(=O)NC3=O)c3ccccc3n2)CC1 : 97.3
CC(C)Oc1ccc(C(=O)N[C@H](CNC(=O)CN(C)C)Cc2ccc(-c3cn4cccc([C@H](C)O)c4n3)cc2)cc1Cl : 101

Item under review: `Cn1cc(-c2ccc3nnc(Sc4ccc5ncccc5c4)n3n2)cn1` . Reported viability?
102

Then what about the molecule `CN1CCN(c2ccc3nc(-c4c(N)c5c(F)cccc5[nH]c4=O)[nH]c3c2)CC1` ?
109

Then what about the molecule `Nc1cc(C(F)(F)F)c(-c2cc(N3CCOCC3)nc(N3CCOCC3)n2)cn1` ?
107

Then what about the molecule O=C(O)CCC1CCC(c2cc(F)ccc2F)(S(=O)(=O)c2ccc(Cl)cc2)CC1 (configuration not stated) ?
105

Then what about the molecule `CS(=O)(=O)N1CCN(Cc2cc3nc(-c4cccc5[nH]ncc45)nc(N4CCOCC4)c3s2)CC1` ?
93.2

Then what about the molecule `Cc1ccc2nc(NC(=O)CSc3nc4c(c(=O)n3-c3ccccc3)SCC4)sc2c1` ?
95.3

Then what about the molecule `O=C(Nc1cccc(Cl)c1)Nc1ncc(CCNc2ncnc3ccsc23)s1` ?
91.7

Then what about the molecule `CNC(=O)c1cc(Oc2ccc(NC(=O)Nc3ccc(Cl)c(C(F)(F)F)c3)c(F)c2)ccn1` ?
109

Then what about the molecule `CCn1c(-c2nonc2N)nc2c(C#CC(C)(C)O)ncc(OC[C@H]3CCCNC3)c21` ?
99.7

Then what about the molecule `CN(C)Cc1c(C(=O)NCCOc2ccc(C(=O)NO)cc2)oc2ccccc12` ?
101

Then what about the molecule `C=CC(=O)Nc1cc(Nc2nccc(-c3cn(C)c4ccccc34)n2)c(OC)cc1N(C)CCN(C)C` ?
106

---

assay: viability loss with induced miR-34 in A549 – imaging, A549 dox-inducible miR-34, nuclei and caspase counts, primary screen (AID 1347080); details: A549 miR-34 inducible, Hoechst nuclei count, 48 h; measured here: total cells with miR-34 induction; stronger effect = lower value
Parameter cell count: see the listing below.
Enter a number only.

Please review the following examples before continuing.
CCN(CC)CCCCC1CCN(CC(=O)N2c3ccccc3C(=O)Nc3cccnc32)CC1 : 8520
CC/C=C\C/C=C\C/C=C\C/C=C\CCCCCCC(=O)O : 5320
C=C1C(=O)O[C@@H]2/C=C(\C)CC/C=C(\C)CC[C@@H]12 : 8100
CC/C=C\C/C=C\C/C=C\C/C=C\CCCCC(=O)O : 5720
N#Cc1cc2[nH]c(=O)c(=O)[nH]c2cc1[N+](=O)[O-] : 9010
CCCCC(C)(O)C/C=C/[C@H]1[C@H](O)CC(=O)[C@H]1CCCCCCC(=O)OC (some centres undefined) : 5420
CCCCCCCCCCCCCCCCC/C=C/C(=O)O : 5370
CCCCC[C@H](O)/C=C/[C@H]1[C@@H](O)CC(=O)[C@@H]1CCCCCCC(=O)O : 5320

Okay, now this compound:
Item under review: `CN1CCN(c2nc(C3=C(c4c[nH]c5ccccc45)C(=O)NC3=O)c3ccccc3n2)CC1` . Reported cell count?
8410

---

assay: viability loss in pontine glioma line – cell-based, SU-DIPG-XVII, MIPE5.0, CellTiter-Glo, qHTS, dose response (AID 1347060); details: CellTiter-Glo ATP luminescence;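 as to AC50: cells exposed to compound for 48 hours before viability readout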
Records with an inconclusive call do not appear. Calls of active or inactive are those of the source. Cut-off not given; nearly all actives show AC50 up to about 26 µM.
Hello, when you answer, please use one of the following outcomes: active, inactive

Take a look at these entries with their results.
O=C(Cc1ccccc1)Nc1nnc(CCSCCc2nnc(NC(=O)Cc3ccccc3)s2)s1 : inactive
Cc1cc2c(cc1C1(c3ccc(C(=O)O)cn3)CC1)C(C)(C)CCC2(C)C : inactive
Cc1cc2c(F)c(Oc3ncnn4cc(OC[C@@H](C)O)c(C)c34)ccc2[nH]1 : active

Recorded test outcome, item `N[C@@H](CCC(=O)O)C(=O)N[C@@H](Cc1c[nH]c2ccccc12)C(=O)O`
inactive

Then what about the molecule `Cn1cc(-c2c[nH]c3ncnc(N4CCOCC4)c23)cn1` ?
inactive

---

Parameter inhibition: see the listing below.
assay: growth inhibition, single agents and combos, LFS_MB_2R, cell-based, cisplatin combos, synergistic combos for chromothripsis tumors (AID 1671457); settings: LFS_MB_2R medulloblastoma cells, measured here: combination with cisplatin, at 5 µM, stronger effect = higher value;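 also: cells exposed to compound for four days before readout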
Report as a plain number; the unit % is understood.

O=c1[nH]c([C@@H]2CCCN2)nc2c1oc1ccc(Cl)cc12 : -24.3
Nc1nc2n[nH]nc2c(=O)[nH]1 : -35.4
Cc1cn([C@@H]2O[C@H](CO)[C@@H](O)[C@@H]2F)c(=O)[nH]c1=O : -44.4
Nc1ccccc1NC(=O)c1ccc(CNc2nccc(-c3cccnc3)n2)cc1 : 98.8
CN(C)Cc1c(C(=O)NCCOc2ccc(C(=O)NO)cc2)oc2ccccc12 : 106

Item under review: `CC(C)OC(=O)[C@H](C)N[P@](=O)(OC[C@H]1O[C@@H](n2ccc(=O)[nH]c2=O)[C@](C)(F)[C@@H]1O)Oc1ccccc1` . Reported inhibition?
-21.1

Then what about the compound `CS(=O)(=O)c1ccc(-c2nnc(/C=C/c3nnc(-c4ccc(C#N)cc4)o3)n2-c2ccccc2Cl)nc1` ?
-1.82

Then what about the compound NC1CCC(N[C@@H]2C[C@H]2c2ccccc2)CC1 (stereo not given in full) ?
-27.2

Then what about the compound `C[C@]12CCCN1CC1=NNC(=O)c3cc(F)cc4[nH]c2c1c34` ?
-24.5

Then what about the compound `NCCOc1cc(C(=O)Nc2cc(OCCN)c3ccccc3n2)nc(C(=O)Nc2cc(OCCN)c3ccccc3n2)c1` ?
-13.9
